# Test system: KG-1a
# method.notes: Cytotoxicity against human KG-1a cells assessed as decrease in cell viability measured after 24 hrs by MTT assay
# Format: functional, cell-based
Consider the following compounds; for each one, report its IC50.
One number for each entry, in µM.

COc1cc2c(NC3CCN(C(C)C)CC3)nc(C3CCCCC3)nc2cc1OCCCN1CCCC1 = 26.5

Next up:
Input: Fill in: IC50 on KG-1a, entry `CN1C(=O)[C@@]23C[C@]4([C@]56C[C@@]78SS[C@@](CO)(C(=O)N7[C@H]5Nc5ccccc56)N(C)C8=O)c5ccccc5N[C@@H]4N2C(=O)[C@]1(CO)SS3`
Output: 0.000103
